// data source = patent US20240270821A1

Target: T1, human GIP receptor (human) (UniProt P48546)
T1 sequence (looked up): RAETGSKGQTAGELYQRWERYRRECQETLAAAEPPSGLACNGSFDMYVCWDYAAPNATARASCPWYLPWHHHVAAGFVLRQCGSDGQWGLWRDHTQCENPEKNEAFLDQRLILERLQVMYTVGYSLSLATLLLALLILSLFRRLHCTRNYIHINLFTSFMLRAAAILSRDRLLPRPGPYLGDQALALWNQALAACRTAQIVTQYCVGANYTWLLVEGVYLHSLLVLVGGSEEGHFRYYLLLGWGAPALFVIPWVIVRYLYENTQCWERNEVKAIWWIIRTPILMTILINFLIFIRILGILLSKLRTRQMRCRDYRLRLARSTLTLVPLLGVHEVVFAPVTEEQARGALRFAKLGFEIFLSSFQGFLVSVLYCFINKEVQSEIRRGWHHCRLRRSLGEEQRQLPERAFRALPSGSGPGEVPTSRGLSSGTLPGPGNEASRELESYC
Assay: cell-based or functional assay
Starred links: 1 amine or outer side, 2 acyl side, 3 side chain; linkers in the order of their positions; H or OH if unused. Non-standard residues stand in square brackets, D forms with d. Groups on a side chain read outwards from the residue. No end group written: not given here. *: point of attachment. C18 diacid = O=C(O)CCCCCCCCCCCCCCCCC(=O)*; γGlu = O=C(O)[C@H](CCC(=O)[*:2])N[*:1]; αMeL = CC(C)C[C@](C)(N)C(=O)O; Dab = NCC[C@H](N)C(=O)O; Dap = NC[C@H](N)C(=O)O; AEEA = NCCOCCOCC(=O)O; Aib = CC(C)(N)C(=O)O
Label no (0) if cAMP Rel EC50, nM (in the presence of 1% HSA) falls below 40 nM; label yes (1) in every other case.

• YXQGTFTSDFSXXLDKKAQXAFIEYLLAGGPSSGAPPPSEG (synthetic construct; SITE 2: note = 2-Aminoisobutyric Acid; SITE 12: note = L-ornithine; SITE 13: note = alpha-methyl-leucine; SITE 17: note = Lysine is chemically modified through conjugation of the epsilon-amino group of the Lysine side chain with (2-[2-(2-Amino-ethoxy)-ethoxy]-acetyl)-(gamma-Glu)) [Example 60] = no (0)
• YXQGTFTSDFSXXLDKKAQXAFIEYLLAGGPSSGEPPPSGE (synthetic construct; SITE 2: note = 2-Aminoisobutyric Acid; SITE 12: note = L-ornithine; SITE 13: note = alpha-methyl-leucine; SITE 17: note = Lysine is chemically modified through conjugation of the epsilon-amino group of the Lysine side chain with (2-[2-(2-Amino-ethoxy)-ethoxy]-acetyl)-(gamma-Glu)) [Example 97] = no (0)
• YXQGTFTSDFSXXLDKKAQXAFIEWLLEGGPSSGAPXPSGE (synthetic construct; SITE 2: note = 2-Aminoisobutyric Acid; SITE 12: note = L-ornithine; SITE 13: note = alpha-methyl-leucine; SITE 17: note = Lysine is chemically modified through conjugation of the epsilon-amino group of the Lysine side chain with (2-[2-(2-Amino-ethoxy)-ethoxy]-acetyl)-(gamma-Glu)) [Example 137] = no (0)
• Y[Aib]QGTFTSDFS[Dap][αMeL]LDKK([AEEA-γGlu-C18 diacid])AQ[Aib]AFIEYLLE[Aib]GPSSGAPPPSGS-NH2 (ends and bridges not checked) [Example 134] = no (0)
• YXQGTFTSDFSXXLDKKAQXAFIEYLLEGGPSSGAPPPGES (synthetic construct; SITE 2: note = 2-Aminoisobutyric Acid; SITE 12: note = L-ornithine; SITE 13: note = alpha-methyl-leucine; SITE 17: note = Lysine is chemically modified through conjugation of the epsilon-amino group of the Lysine side chain with (2-[2-(2-Amino-ethoxy)-ethoxy]-acetyl)2-(gamma-Glu)) [Example 118] = yes (1)
• YXQGTFTSDFSKXLDKKAQXAFIEYLLEGGPSSGAPPPXGE (synthetic construct; SITE 2: note = 2-Aminoisobutyric Acid; SITE 13: note = alpha-methyl-leucine; SITE 17: note = Lysine is chemically modified through conjugation of the epsilon-amino group of the Lysine side chain with (2-[2-(2-Amino-ethoxy)-ethoxy]-acetyl)-(gamma-Glu)-CO-(CH2) 18-CO2H; SITE 20: n) [Example 53] = yes (1)
• YXQGTFTSDFSXXLDKKAQXAFIEYLLAGGPSSGAPPPSGT (synthetic construct; SITE 2: note = 2-Aminoisobutyric Acid; SITE 12: note = L-ornithine; SITE 13: note = alpha-methyl-leucine; SITE 17: note = Lysine is chemically modified through conjugation of the epsilon-amino group of the Lysine side chain with (2-[2-(2-Amino-ethoxy)-ethoxy]-acetyl)-(gamma-Glu)) [Example 87] = no (0)
• YXQGTFTSDXSXXLDKKAQXAFIEWLLEGGPSSGEPPPSGE (synthetic construct; SITE 2: note = 2-Aminoisobutyric Acid; SITE 10: note = 3-(4-Pyridyl)-L-alanine; SITE 12: note = L-ornithine; SITE 13: note = alpha-methyl-leucine; SITE 17: note = Lysine is chemically modified through conjugation of the epsilon-amino group of the Lysine side chain with (2-[2-(2-) [Example 115] = yes (1)
• YXQGTFTSDFSXXLDKKAQXAFIEWLLEGGHSSGEPPPEGS (synthetic construct; SITE 2: note = 2-Aminoisobutyric Acid; SITE 12: note = L-ornithine; SITE 13: note = alpha-methyl-leucine; SITE 17: note = Lysine is chemically modified through conjugation of the epsilon-amino group of the Lysine side chain with (2-[2-(2-Amino-ethoxy)-ethoxy]-acetyl)-(gamma-Glu)) [Example 127] = yes (1)
• Y[Aib]QGTFTSDFS[Dab][αMeL]LDKK([AEEA-γGlu-C18 diacid])AQ[Aib]AFIEYLLE[Aib]GPSSGAPPPSGS-NH2 (ends and bridges not checked) [Example 133] = no (0)
• YXQGTFTSDFSKXLDKKAQXAFIEYLLEGGPSSGEPPPGEGX (synthetic construct; SITE 2: note = 2-Aminoisobutyric Acid; SITE 13: note = alpha-methyl-leucine; SITE 17: note = Lysine is chemically modified through conjugation of the epsilon-amino group of the Lysine side chain with (2-[2-(2-Amino-ethoxy)-ethoxy]-acetyl)-(gamma-Glu)-CO-(CH2) 18-CO2H; SITE 20: n) [Example 54] = yes (1)
